Type: physicochemical
test-context: 0.1 mg/ml in physiological saline
Reported released dosage at the mouthpiece as share of the nominal value values for the following substances.
Write the numeric value and append its unit.

Illustrative cases are given below, each with its answer.
INSERT INTO results (substance, experimental_value) VALUES
  ('Ac-Ser-Tyr-Ser-Met-Glu-His-Phe-Arg-Trp-Gly-Lys-Pro-Val-NH2 [α-melanocyte stimulating hormone]', '45%'),
  ('Gly-Leu-Ser-Lys-Gly-Cys-Phe-Gly-Leu-Lys-Leu-Asp-Arg-Ile-Gly-Ser-Met-Ser-Gly-Leu-Gly-Cys [C-type natriuretic peptide]', '77%'),
  ('His-Ser-Asp-Gly-Ile-Phe-Thr-Asp-Ser-Tyr-Ser-Arg-Tyr-Arg-Lys-Gln-Met-Ala-Val-Lys-Lys-Tyr-Leu-Ala-Ala-Val-Leu-Gly-Lys-Arg-Tyr-Lys-Gln-Arg-Val-Lys-Asn-Lys [PACAP-38]', '58%'),
  ('Tyr-Arg-Gln-Ser-Met-Asn-Asn-Phe-Gln-Gly-Leu-Arg-Ser-Phe-Gly-Cys-Arg-Phe-Gly-Thr-Cys-Thr-Val-Gln-Lys-Leu-Ala-His-Gln-Ile-Tyr-Gln-Phe-Thr-Asp-Lys-Asp-Lys-Asp-Asn-Val-Ala-Pro-Arg-Ser-Lys-Ile-Ser-Pro-Gln-Gly-Tyr [adrenomedullin]', '53%');

Let us examine a further case.
Short answer for Ser-Pro-Lys-Met-Val-Gln-Gly-Ser-Gly-Cys-Phe-Gly-Arg-Lys-Met-Asp-Arg-Ile-Ser-Ser-Ser-Ser-Gly-Leu-Gly-Cys-Lys-Val-Leu-Arg-Arg-His [B-type natriuretic peptide] : released dosage at the mouthpiece as share of the nominal value was 69%

----------
Assay type: physicochemical
test-context: 0.1 mg/ml in physiological saline, at the mouthpiece
Measured released dosage values are reported for all entries that follow.
The reply should be a number in mg, with the unit left off.

Form: substance = Tyr-Arg-Gln-Ser-Met-Asn-Asn-Phe-Gln-Gly-Leu-Arg-Ser-Phe-Gly-Cys-Arg-Phe-Gly-Thr-Cys-Thr-Val-Gln-Lys-Leu-Ala-His-Gln-Ile-Tyr-Gln-Phe-Thr-Asp-Lys-Asp-Lys-Asp-Asn-Val-Ala-Pro-Arg-Ser-Lys-Ile-Ser-Pro-Gln-Gly-Tyr [adrenomedullin] ; released dosage = 0.053

----------
Item-by-item account of MMAD
Format: physicochemical
test-context: 0.1 mg/ml in physiological saline

INSERT INTO assay_data (substance, experimental_value) VALUES
  ('Tyr-Arg-Gln-Ser-Met-Asn-Asn-Phe-Gln-Gly-Leu-Arg-Ser-Phe-Gly-Cys-Arg-Phe-Gly-Thr-Cys-Thr-Val-Gln-Lys-Leu-Ala-His-Gln-Ile-Tyr-Gln-Phe-Thr-Asp-Lys-Asp-Lys-Asp-Asn-Val-Ala-Pro-Arg-Ser-Lys-Ile-Ser-Pro-Gln-Gly-Tyr [adrenomedullin]', '3.41 μm'),
  ('Gly-Leu-Ser-Lys-Gly-Cys-Phe-Gly-Leu-Lys-Leu-Asp-Arg-Ile-Gly-Ser-Met-Ser-Gly-Leu-Gly-Cys [C-type natriuretic peptide]', '3.37 μm'),
  ('Ac-Ser-Tyr-Ser-Met-Glu-His-Phe-Arg-Trp-Gly-Lys-Pro-Val-NH2 [α-melanocyte stimulating hormone]', '3.11 μm'),
  ('His-Ser-Asp-Gly-Ile-Phe-Thr-Asp-Ser-Tyr-Ser-Arg-Tyr-Arg-Lys-Gln-Met-Ala-Val-Lys-Lys-Tyr-Leu-Ala-Ala-Val-Leu-Gly-Lys-Arg-Tyr-Lys-Gln-Arg-Val-Lys-Asn-Lys [PACAP-38]', '3.25 μm');

# input for lookup
# substance Ser-Pro-Lys-Met-Val-Gln-Gly-Ser-Gly-Cys-Phe-Gly-Arg-Lys-Met-Asp-Arg-Ile-Ser-Ser-Ser-Ser-Gly-Leu-Gly-Cys-Lys-Val-Leu-Arg-Arg-His [B-type natriuretic peptide] ; its MMAD = 3.46 μm

These data points were gathered from patent US20230103704A1.
